system: UACC-257 melanoma; assay: NCI tumour cell line growth inhibition, 48 h
Listed below: TGI values for each entry.

[
  {
    "COMPOUND": "Cc1ncc(C(=O)Nc2ccc(CN3CCN(C)CC3)c(C(F)(F)F)c2)cc1C#Cc1cnc(N)c2ncccc12",
    "TGI": "2.55 µM"
  },
  {
    "COMPOUND": "COc1ccc(CC2c3cc(OC)c(OC)c(OC)c3CC[N+]2(C)C)cc1Oc1ccc(CC2c3cc4c(c(OC)c3CCN2C)OCO4)cc1 (configuration not stated)",
    "TGI": "> 100 µM"
  },
  {
    "COMPOUND": "CO/N=C(/COc1c(-c2ccccc2)oc2ccccc2c1=O)c1ccc(OC)cc1",
    "TGI": "> 100 µM"
  },
  {
    "COMPOUND": "CCN(CC)CCCOc1cc(O)c2c(=O)cc(-c3ccccc3)oc2c1",
    "TGI": "12.5 µM"
  },
  {
    "COMPOUND": "O=C(Nc1ccccc1)NS(=O)(=O)c1ccc(N2N=C3c4ccccc4CC3C2c2ccccn2)cc1 (configuration not stated)",
    "TGI": "76.6 µM"
  },
  {
    "COMPOUND": "O=C1/C(=C/c2ccccc2)N=C(c2ccccc2)N1C1Nc2cc3c(cc2S1)NC(N1C(=O)/C(=C/c2ccccc2)N=C1c1ccccc1)S3 (configuration not stated)",
    "TGI": "> 100 µM"
  },
  {
    "COMPOUND": "Cn1c(Sc2ccc(-c3cccnc3)n2C)ccc1-c1cccnc1",
    "TGI": "29.1 µM"
  },
  {
    "COMPOUND": "Cc1nc(-c2cc3c(ccc4ccccc43)oc2=O)cc2c1c(=O)oc1ccc3ccccc3c12",
    "TGI": "> 100 µM"
  },
  {
    "COMPOUND": "CCN(CC)CCOC(=O)CCN1CC2CCC(CC2)C1",
    "TGI": "> 100 µM"
  },
  {
    "COMPOUND": "COc1ccc(N2C(=O)c3cccnc3S2(=O)=O)cc1",
    "TGI": "> 100 µM"
  },
  {
    "COMPOUND": "CN(C)/C=C(\\C(=O)c1ccccc1)n1nc(-c2ccccc2)cc1-c1ccccc1",
    "TGI": "> 10 µM"
  },
  {
    "COMPOUND": "Nc1ccn(C2CC(O)C(CO)O2)c(=O)n1 (configuration not stated)",
    "TGI": "> 5000 µM"
  },
  {
    "COMPOUND": "COC(=O)c1c2c(c(-c3ccccc3)c3c1-c1nc(Cl)ccc1CC3)CCc1ccc(Cl)nc1-2",
    "TGI": "> 100 µM"
  },
  {
    "COMPOUND": "CO[C@@H]1C=C[C@@]23c4cc5c(cc4C(O)N(CC2O)C3C1)OCO5 (some centres not stated)",
    "TGI": "5.9 µM"
  },
  {
    "COMPOUND": "CCOC(=O)C(Cc1ccccc1)NC(=O)OC(C)(C)C (configuration not stated)",
    "TGI": "> 100 µM"
  },
  {
    "COMPOUND": "COc1ccc2oc(=O)c(CC=C(C)C)c(O)c2c1C",
    "TGI": "> 100 µM"
  },
  {
    "COMPOUND": "CC(C)[Si](OC1=C(C(=O)N(C)c2ccccc2Cl)CCCC1)(C(C)C)C(C)C",
    "TGI": "24.1 µM"
  },
  {
    "COMPOUND": "CCOC(=O)N1N=NC2C3OC(C[C@@]3(C#N)OC(C)=O)[C@H]21 (some centres not stated)",
    "TGI": "> 100 µM"
  },
  {
    "COMPOUND": "Nc1c(C(=O)c2cccc(CCC3(O)CCCC3)c2)cnn1-c1ccc(F)cc1",
    "TGI": "> 25 µM"
  },
  {
    "COMPOUND": "CC(C)Oc1ccc(CNC2=NCCO2)c2ccccc12",
    "TGI": "20 µM"
  },
  {
    "COMPOUND": "COc1ccc2oc(=O)c3c(c2c1C)OC(C)(C)C=C3",
    "TGI": "> 100 µM"
  },
  {
    "COMPOUND": "CCCNC(C#N)c1ccc(OCCCCCCCCCCOc2ccc(C(C#N)NCCC)cc2)cc1 (configuration not stated)",
    "TGI": "> 100 µM"
  },
  {
    "COMPOUND": "COc1cc2ccnc3c2c(c1OC)-c1ccc(=O)ccc1-3",
    "TGI": "63.5 µM"
  },
  {
    "COMPOUND": "Cc1ccc(NC(=O)CC/C(CC(=O)c2ccc(F)cc2)=N\\NC(=O)C(=O)NN)cc1C",
    "TGI": "> 100 µM"
  },
  {
    "COMPOUND": "Nc1c(C(=O)c2cccc(C#CCN3CCOCC3)c2)cnn1-c1ccc(F)cc1",
    "TGI": "> 25 µM"
  },
  {
    "COMPOUND": "C[n+]1ccc(-c2cc[n+](C)cc2)cc1",
    "TGI": "3.09 µM"
  },
  {
    "COMPOUND": "CC1(C)CC(=O)c2c(ccc(C(=O)C[C@H](N)CO)c2N)O1",
    "TGI": "> 33.3 µM"
  },
  {
    "COMPOUND": "N#Cc1cccc(/C=C(/C(=O)c2ccccc2)c2ccccc2)c1",
    "TGI": "18.2 µM"
  },
  {
    "COMPOUND": "CC(C)=C[C@@H]1C[C@H](C)c2c(O)cc(C)c3c2C1=C(C)C(=O)C3=O",
    "TGI": "37.5 µM"
  },
  {
    "COMPOUND": "CC(=O)OC1CCC2(C)C(CCC3C4CC=C(C(C)=O)C4(C)OC(=O)CC32)C1 (configuration not stated)",
    "TGI": "2.98 µM"
  },
  {
    "COMPOUND": "CCOC(=O)CCC(C(=O)OCC)n1nnc2ccc(Nc3c(C)[n+]([O-])c4cc(Cl)ccc4[n+]3[O-])cc21 (configuration not stated)",
    "TGI": "30.8 µM"
  },
  {
    "COMPOUND": "CN(C)CC/C(=N\\Nc1ccc(Cl)c(Cl)c1)c1ccccc1",
    "TGI": "9.61 µM"
  },
  {
    "COMPOUND": "NCCCC1NC(=O)/C(=C(O)/C=C/C2CCC[C@@H]2CC2SCCS2)C1=O (some centres not stated)",
    "TGI": "> 100 µM"
  },
  {
    "COMPOUND": "COC(=O)[C@@H]1C2OC(C)(C)OC2CN1C(=O)OCc1ccccc1 (some centres not stated)",
    "TGI": "> 100 µM"
  },
  {
    "COMPOUND": "COc1c(Cl)cc(S(=O)O)cc1Cl",
    "TGI": "> 100 µM"
  },
  {
    "COMPOUND": "NC1=CN(Cc2ccccc2)C2=N/C(=C\\c3ccccc3)C(=O)N12",
    "TGI": "> 100 µM"
  },
  {
    "COMPOUND": "CC1(C)CC(OCCCC[P+](c2ccccc2)(c2ccccc2)c2ccccc2)CC(C)(C)N1O",
    "TGI": "0.977 µM"
  },
  {
    "COMPOUND": "Cc1cc2c3ccccc3ccc2[n+]2ccccc12",
    "TGI": "27.5 µM"
  },
  {
    "COMPOUND": "COc1cc(/C=C/c2ccc(OC(C)=O)cc2)cc(OC)c1OC",
    "TGI": "> 100 µM"
  },
  {
    "COMPOUND": "O=c1cc(O)c2ccccc2o1",
    "TGI": "> 100 µM"
  },
  {
    "COMPOUND": "COc1ccc(-c2cc(-c3cn[nH]c3-c3ccccn3)ccn2)cc1",
    "TGI": "> 25 µM"
  },
  {
    "COMPOUND": "CN(C)CCNC(=O)Cn1ccc(=O)c2ccc([N+](=O)[O-])cc21",
    "TGI": "> 100 µM"
  }
]
